test: Particle size of MDMA measured by laser diffraction; assay type: physicochemical
# key: entry, value: Dv90

>  <compound>
CNC(C)Cc1ccc2c(c1)OCO2.Cl (stereo not drawn) [CJS194-4]

>  <Dv90>
353 μm

$$$$
>  <compound>
CNC(C)Cc1ccc2c(c1)OCO2.Cl (stereo not drawn) [CJS194-5]

>  <Dv90>
341 μm

$$$$
>  <compound>
CNC(C)Cc1ccc2c(c1)OCO2.Cl (stereo not drawn) [CJS194-2]

>  <Dv90>
326 μm

$$$$
>  <compound>
CNC(C)Cc1ccc2c(c1)OCO2.Cl (stereo not drawn) [CJS194-3]

>  <Dv90>
326 μm

$$$$
>  <compound>
CNC(C)Cc1ccc2c(c1)OCO2.Cl (stereo not drawn) [CJS194-1]

>  <Dv90>
342 μm

$$$$
>  <compound>
CNC(C)Cc1ccc2c(c1)OCO2.Cl (stereo not drawn) [Input 201101]

>  <Dv90>
844 μm

$$$$

* * *

experiment: Study MPKF: plasma pharmacokinetics of MDMA and MDA, single 120 mg MDMA·HCl, fasted/fed; assay type: in vivo, human; settings: human, plasma, oral, 120 mg, fasted treatment group; 8 h; read-out: PK plasma concentration, Median
measure: concentration at 8 h (ng/mL)

>  <compound>
CNC(C)Cc1ccc2c(c1)OCO2 (stereo not shown) [MDMA, 3,4-methylenedioxymethamphetamine]

>  <value.reported>
165

$$$$

* * *

assay: Study MPKF: plasma pharmacokinetics of MDMA and MDA, single 120 mg MDMA·HCl, fasted/fed; type: in vivo, human; conditions: human, plasma, po, 120 mg, Fed N = 11; 120 mg MDMA·HCl; preliminary; arithmetic mean

>  <molecule>
CNC(C)Cc1ccc2c(c1)OCO2 (stereo not shown)

>  <Vd/F, L>
349

$$$$

* * *

assay: Study MPKF: plasma pharmacokinetics of MDMA and MDA, single 120 mg MDMA·HCl, fasted/fed; assay type: in vivo, human; conditions: human, plasma, oral, 120 mg, fasted treatment group; 12 h; read-out: PK plasma concentration, Median

>  <compound>
CNC(C)Cc1ccc2c(c1)OCO2 (stereo not shown)

>  <concentration at 12 h / ng/mL>
120

$$$$

* * *

experiment: Study MPKF: plasma pharmacokinetics of MDMA and MDA, single 120 mg MDMA·HCl, fasted/fed; format: in vivo, human; conditions: human, plasma, oral, 120 mg, fed treatment group; 8 h; read-out: PK plasma concentration, Geom. Mean
measure: concentration at 8 h (ng/mL)

>  <compound>
CNC(C)Cc1ccc2c(c1)OCO2 (stereo not shown)

>  <measure>
concentration at 8 h

>  <value.reported>
173

$$$$

* * *

assay: Study MPKF: safety and tolerability (AEs, laboratory, vital signs); format: in vivo, human; details: human, plasma, oral, 120 mg; 1 participant, no AEs reported; read-out: AUC0-inf at which tolerability is supported

>  <compound>
CNC(C)Cc1ccc2c(c1)OCO2 (stereo not shown)

>  <AUC(0-inf) (ng·h/mL)>
8920

$$$$

* * *

Assay: Study MPKF: plasma pharmacokinetics of MDMA and MDA, single 120 mg MDMA·HCl, fasted/fed
Format: in vivo, human
Settings: human, plasma, oral, 120 mg, fasted treatment group; 72 h; read-out: PK plasma concentration, Mean
Description: The MPKF was a Phase 1, open-label, randomized sequence, multi-dose, 2-period crossover food effect study in 16 healthy individuals. The MPKF study evaluated plasma concentrations of both MDMA and the active metabolite 3,4-methylenedioxyamphetamine (MDA). […] Sample Collection: Blood samples were collected at various time points up to 72 hours after dosing. The samples were analyzed using validated liquid chromatography-tandem mass spectrometry (LC-MS/MS) methods. […]

>  <compound>
CNC(C)Cc1ccc2c(c1)OCO2 (stereo not shown)

>  <concentration at 72 h, ng/mL>
0.417

$$$$
